Origin of the recorded values: ChEMBL document CHEMBL1141512

target: Cannabinoid receptor 2 (Homo sapiens, UniProt P34972); assay: Agonist activity at human CB2 receptor expressed in CHO cells assessed as inhibition of forskolin-stimulated cAMP level relative to CP-55940; assay type: functional, cell-based; parameters: scale not given: the % may be the effect or the level left
Sequence (P34972 whole entry): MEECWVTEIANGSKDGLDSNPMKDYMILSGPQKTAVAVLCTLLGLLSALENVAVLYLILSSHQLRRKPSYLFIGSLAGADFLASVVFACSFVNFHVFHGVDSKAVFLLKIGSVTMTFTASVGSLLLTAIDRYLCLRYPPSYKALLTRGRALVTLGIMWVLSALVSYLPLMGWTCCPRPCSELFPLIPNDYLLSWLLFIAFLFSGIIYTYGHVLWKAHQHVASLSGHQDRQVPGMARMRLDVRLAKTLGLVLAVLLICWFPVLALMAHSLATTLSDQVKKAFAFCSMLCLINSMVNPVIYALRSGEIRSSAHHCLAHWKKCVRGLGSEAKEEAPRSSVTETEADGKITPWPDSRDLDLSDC
endpoint-label: Activity (%)
Only the number, expressed in %, is required.

Worked examples, 4 molecules total:
Cc1ccc(C(=O)N[C@H](C)C2CCCCC2)cc1S(=O)(=O)N1CCCCC1 :: 85
O=C(NCC1CCOCC1)c1cnc(Nc2ccc(Cl)cc2Cl)nc1C(F)(F)F :: 95
COc1ccc2c(c1)c(CCN1CCOCC1)c(C)n2C(=O)c1cccc(Cl)c1Cl :: 44
Cc1ccc(C(=O)Nc2ccccc2)cc1S(=O)(=O)N1CCCCC1 :: 74

Notebook entry, Cannabinoid receptor 2 (Homo sapiens, UniProt P34972) assay: Activity of CC(C)c1ccc(C(=O)N2CCC3CCCCC3C2)cc1S(=O)(=O)N1CCCC1 (stereo not drawn) = ?
101

Give Cannabinoid receptor 2 (Homo sapiens, UniProt P34972) Activity for `CC(C)c1ccc(C(=O)NC2CCCCC2)cc1S(=O)(=O)N1CCCC1`
86

Value wanted: Activity (Cannabinoid receptor 2 (Homo sapiens, UniProt P34972)) of entry Cc1ccc(C(=O)N2CCC3CCCCC3C2)cc1S(=O)(=O)N1CCSCC1 (stereo not drawn)
90

----------
organism: Homo sapiens; assay: Selectivity for human CB2 receptor over human CB1 receptor by cAMP assay
Could you label it fulfilled if measured Selectivity ratio is 40 or higher, and not fulfilled otherwise?

Cc1ccc(C(=O)Nc2cccc3cccnc23)cc1S(=O)(=O)N1CCCCC1 :: not fulfilled
Cc1ccc(C(=O)N2CCC3CCCCC3C2)cc1S(=O)(=O)N1CCC(O)CC1 (centres undefined) :: not fulfilled
Cc1ccc(C(=O)N2CCC3CCCCC3C2)cc1S(=O)(=O)N1CCS(=O)(=O)CC1 (centres undefined) :: fulfilled
Cc1ccc(C(=O)N[C@@H](C)C2CCCCC2)cc1S(=O)(=O)N1CCCCC1 :: not fulfilled
Cc1ccc(C(=O)NC2CCCCC2)cc1S(=O)(=O)N1CCCCC1 :: not fulfilled
Cc1ccc(C(=O)N2CCC3CCCCC3C2)cc1S(=O)(=O)N1CCCC1 (centres undefined) :: fulfilled

I'd appreciate it if you could say whether `Cc1ccc(C(=O)Nc2ccccc2Cl)cc1S(=O)(=O)N1CCCCC1` has Selectivity ratio at least equal to 40.
not fulfilled

Determine whether this compound has Selectivity ratio no lower than 40: O=C(c1ccc(Cl)c(S(=O)(=O)N2CCCC2)c1)N1CCC2CCCCC2C1 (centres undefined)
fulfilled

# bool: Selectivity ratio of `Cc1ccc(C(=O)Nc2cccc(Cl)c2)cc1S(=O)(=O)N1CCCCC1` >= 40
not fulfilled

Confirm if Selectivity ratio reported for the compound `Cc1ccc(C(=O)N(C)C2CCCCC2)cc1S(=O)(=O)N1CCCCC1` is 40 or above.
not fulfilled

Form field: Selectivity ratio at least 40? Entry: Cc1ccc(C(=O)N2CCC3CCCCC3C2)cc1S(=O)(=O)NCC(C)C (centres undefined)
fulfilled

Determine whether this compound has Selectivity ratio no lower than 40: `Cc1ccc(C(=O)Oc2cccc3cccnc23)cc1S(=O)(=O)N1CCCCC1`
not fulfilled

Quick check, Selectivity ratio >= 40? `Cc1ccc(C(=O)NC2CCCCC2)cc1S(=O)(=O)N1CCCC1`
fulfilled

Check the entry `Cc1ccc(C(=O)N[C@H](C)C2CCCCC2)cc1S(=O)(=O)N1CCCCC1` : does Selectivity ratio equal or exceed 40?
fulfilled

For this compound, is measured Selectivity ratio 40 or higher? Cc1ccc(C(=O)N2CCC3CCCCC3C2)cc1S(=O)(=O)N1CCCCC1 (centres undefined)
fulfilled

Hello, I need to know if Cc1ccc(C(=O)N2CCC3CCCCC3C2)cc1S(=O)(=O)N1CCCCCC1 (centres undefined) has measured Selectivity ratio not below 40. Thanks!
fulfilled

----------
target: Cannabinoid receptor 2 (Homo sapiens, UniProt P34972); assay: Agonist activity at human CB2 receptor expressed in CHO cells assessed as inhibition of forskolin-stimulated cAMP level
endpoint-label: pEC50
Worth noting: pEC50 values are minus log10 of concentrations stated in mol/L.

Example cases with answers are listed next.
Cc1ccc(C(=O)N2CCCC3CCCCC32)cc1S(=O)(=O)N1CCCCC1 (stereo not given) :: 8.22
Cc1ccc(C(=O)NC2CCCCC2)cc1S(=O)(=O)N1CCCCC1 :: 7.85
Cc1ccc(C(=O)N2CCC3CCCCC3C2)cc1S(=O)(=O)N1CCC1 (stereo not given) :: 7.89
Cc1ccc(C(=O)N2CCC3CCCCC3C2)cc1S(=O)(=O)NCC(C)C (stereo not given) :: 7.85

Next up:
Look up pEC50: `Cc1ccc(C(=O)Nc2ccccc2S(C)(=O)=O)cc1S(=O)(=O)N1CCCCC1`
8.22

----------
target: Cannabinoid receptor 2 (Homo sapiens); assay: Agonist activity at human CB2 receptor expressed in CHO cells assessed as inhibition of forskolin-stimulated cAMP level relative to CP-55940; assay type: functional, cell-based; design: scale not given: the % may be the effect or the level left
endpoint-label: Activity (%)
Report as a plain number; the unit % is understood.

Example molecules with recorded Activity:
Cc1ccc(C(=O)Nc2ccccc2C(F)(F)F)cc1S(=O)(=O)N1CCCCC1 :: 92
Cc1ccc(C(=O)N2CC[C@@H]3CCCC[C@H]3C2)cc1S(=O)(=O)N1CCCCC1 (relative stereo) :: 93
Cc1ccc(C(=O)N2CCC3CCCCC3C2)cc1S(=O)(=O)N1CCCCC1 (stereo unspecified) :: 95

What value of Activity has been reported for the following molecule? `Cc1ccc(C(=O)Nc2ccccc2S(C)(=O)=O)cc1S(=O)(=O)N1CCCCC1`
96

Consider the molecule `Cc1ccc(C(=O)Nc2ccccc2Cl)cc1S(=O)(=O)N1CCCCC1` and give its measured Activity.
89

// Activity lookup, key: O=C(c1ccc(Cl)c(S(=O)(=O)N2CCCC2)c1)N1CCC2CCCCC2C1 (stereo unspecified)
93

So what does the record say about Activity for `Cc1ccccc1NC(=O)c1ccc(C)c(S(=O)(=O)N2CCCCC2)c1` ?
76

Which Activity value belongs to `Cc1ccc(C(=O)Nc2cccc3cccnc23)cc1S(=O)(=O)N1CCCCC1` ?
100

----------
species: Homo sapiens; experiment: Selectivity for human CB2 receptor over human CB1 receptor by cAMP assay
Listing: Selectivity ratio of selected compounds
A bare number is all that is needed in reply.

CC(C)c1ccc(C(=O)N2CCC3CCCCC3C2)cc1S(=O)(=O)N1CCCC1 (stereo not drawn) :: 2860
Cc1ccc(C(=O)N2CC[C@@H]3CCCC[C@H]3C2)cc1S(=O)(=O)N1CCCCC1 (relative stereo) :: 6890
Cc1ccc(C(=O)Nc2ccccc2)cc1S(=O)(=O)N1CCCCC1 :: 6

What value of measured Selectivity ratio is listed for `Cc1ccc(C(=O)Nc2ccccc2C(F)(F)F)cc1S(=O)(=O)N1CCCCC1` ?
96

----------
biological target: UniProt P34972; experiment: Agonist activity at human CB2 receptor expressed in CHO cells assessed as inhibition of forskolin-stimulated cAMP level relative to CP-55940; assay type: functional, cell-based; set-up: scale not given: the % may be the effect or the level left
endpoint-label: Activity (%)
Write the value in % as a bare number.

Reference set, count: 2
Cc1ccc(C(=O)NC2CCCCC2)cc1S(=O)(=O)N1CCCCC1 :: 86
Cc1ccc(C(=O)N(C)C2CCCCC2)cc1S(=O)(=O)N1CCCCC1 :: 86

Which value of Activity has been reported for `Cc1ccc(C(=O)Nc2ccc(Cl)cc2)cc1S(=O)(=O)N1CCCCC1` in the records?
117

----------
organism: Homo sapiens; test: Selectivity for human CB2 receptor over human CB1 receptor by cAMP assay
endpoint-label: Selectivity ratio

Cc1ccc(C(=O)N2CCC3CCCCC3C2)cc1S(=O)(=O)N1CCOCC1 (centres undefined) :: 2640
Cc1ccc(C(=O)N2CCC3CCCCC3C2)cc1S(=O)(=O)N1CCC1 (centres undefined) :: > 1500
Cc1ccc(C(=O)N2CCCCC2)cc1S(=O)(=O)N1CCCCC1 :: > 240
Cc1ccc(C(=O)N2CCCC3CCCCC32)cc1S(=O)(=O)N1CCCCC1 (centres undefined) :: 94
COc1ccccc1NC(=O)c1ccc(C)c(S(=O)(=O)N2CCCCC2)c1 :: 9
Cc1ccccc1NC(=O)c1ccc(C)c(S(=O)(=O)N2CCCCC2)c1 :: 1.5
Cc1ccc(C(=O)N2CCC3CCCCC3C2)cc1S(=O)(=O)N1CCSCC1 (centres undefined) :: 3250
Cc1ccc(C(=O)Nc2ccccc2S(C)(=O)=O)cc1S(=O)(=O)N1CCCCC1 :: 66

The record that follows has no Selectivity ratio shown yet.
What value of Selectivity ratio has been recorded for this entry: `O=C(NCC1CCOCC1)c1cnc(Nc2ccc(Cl)cc2Cl)nc1C(F)(F)F`
> 470
